- tested.system: Voltage-dependent T-type calcium channel subunit alpha-1H (Homo sapiens);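 note: channel activity triggered by adding a high calcium stimulation buffer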
- Sequence (O95180 whole entry): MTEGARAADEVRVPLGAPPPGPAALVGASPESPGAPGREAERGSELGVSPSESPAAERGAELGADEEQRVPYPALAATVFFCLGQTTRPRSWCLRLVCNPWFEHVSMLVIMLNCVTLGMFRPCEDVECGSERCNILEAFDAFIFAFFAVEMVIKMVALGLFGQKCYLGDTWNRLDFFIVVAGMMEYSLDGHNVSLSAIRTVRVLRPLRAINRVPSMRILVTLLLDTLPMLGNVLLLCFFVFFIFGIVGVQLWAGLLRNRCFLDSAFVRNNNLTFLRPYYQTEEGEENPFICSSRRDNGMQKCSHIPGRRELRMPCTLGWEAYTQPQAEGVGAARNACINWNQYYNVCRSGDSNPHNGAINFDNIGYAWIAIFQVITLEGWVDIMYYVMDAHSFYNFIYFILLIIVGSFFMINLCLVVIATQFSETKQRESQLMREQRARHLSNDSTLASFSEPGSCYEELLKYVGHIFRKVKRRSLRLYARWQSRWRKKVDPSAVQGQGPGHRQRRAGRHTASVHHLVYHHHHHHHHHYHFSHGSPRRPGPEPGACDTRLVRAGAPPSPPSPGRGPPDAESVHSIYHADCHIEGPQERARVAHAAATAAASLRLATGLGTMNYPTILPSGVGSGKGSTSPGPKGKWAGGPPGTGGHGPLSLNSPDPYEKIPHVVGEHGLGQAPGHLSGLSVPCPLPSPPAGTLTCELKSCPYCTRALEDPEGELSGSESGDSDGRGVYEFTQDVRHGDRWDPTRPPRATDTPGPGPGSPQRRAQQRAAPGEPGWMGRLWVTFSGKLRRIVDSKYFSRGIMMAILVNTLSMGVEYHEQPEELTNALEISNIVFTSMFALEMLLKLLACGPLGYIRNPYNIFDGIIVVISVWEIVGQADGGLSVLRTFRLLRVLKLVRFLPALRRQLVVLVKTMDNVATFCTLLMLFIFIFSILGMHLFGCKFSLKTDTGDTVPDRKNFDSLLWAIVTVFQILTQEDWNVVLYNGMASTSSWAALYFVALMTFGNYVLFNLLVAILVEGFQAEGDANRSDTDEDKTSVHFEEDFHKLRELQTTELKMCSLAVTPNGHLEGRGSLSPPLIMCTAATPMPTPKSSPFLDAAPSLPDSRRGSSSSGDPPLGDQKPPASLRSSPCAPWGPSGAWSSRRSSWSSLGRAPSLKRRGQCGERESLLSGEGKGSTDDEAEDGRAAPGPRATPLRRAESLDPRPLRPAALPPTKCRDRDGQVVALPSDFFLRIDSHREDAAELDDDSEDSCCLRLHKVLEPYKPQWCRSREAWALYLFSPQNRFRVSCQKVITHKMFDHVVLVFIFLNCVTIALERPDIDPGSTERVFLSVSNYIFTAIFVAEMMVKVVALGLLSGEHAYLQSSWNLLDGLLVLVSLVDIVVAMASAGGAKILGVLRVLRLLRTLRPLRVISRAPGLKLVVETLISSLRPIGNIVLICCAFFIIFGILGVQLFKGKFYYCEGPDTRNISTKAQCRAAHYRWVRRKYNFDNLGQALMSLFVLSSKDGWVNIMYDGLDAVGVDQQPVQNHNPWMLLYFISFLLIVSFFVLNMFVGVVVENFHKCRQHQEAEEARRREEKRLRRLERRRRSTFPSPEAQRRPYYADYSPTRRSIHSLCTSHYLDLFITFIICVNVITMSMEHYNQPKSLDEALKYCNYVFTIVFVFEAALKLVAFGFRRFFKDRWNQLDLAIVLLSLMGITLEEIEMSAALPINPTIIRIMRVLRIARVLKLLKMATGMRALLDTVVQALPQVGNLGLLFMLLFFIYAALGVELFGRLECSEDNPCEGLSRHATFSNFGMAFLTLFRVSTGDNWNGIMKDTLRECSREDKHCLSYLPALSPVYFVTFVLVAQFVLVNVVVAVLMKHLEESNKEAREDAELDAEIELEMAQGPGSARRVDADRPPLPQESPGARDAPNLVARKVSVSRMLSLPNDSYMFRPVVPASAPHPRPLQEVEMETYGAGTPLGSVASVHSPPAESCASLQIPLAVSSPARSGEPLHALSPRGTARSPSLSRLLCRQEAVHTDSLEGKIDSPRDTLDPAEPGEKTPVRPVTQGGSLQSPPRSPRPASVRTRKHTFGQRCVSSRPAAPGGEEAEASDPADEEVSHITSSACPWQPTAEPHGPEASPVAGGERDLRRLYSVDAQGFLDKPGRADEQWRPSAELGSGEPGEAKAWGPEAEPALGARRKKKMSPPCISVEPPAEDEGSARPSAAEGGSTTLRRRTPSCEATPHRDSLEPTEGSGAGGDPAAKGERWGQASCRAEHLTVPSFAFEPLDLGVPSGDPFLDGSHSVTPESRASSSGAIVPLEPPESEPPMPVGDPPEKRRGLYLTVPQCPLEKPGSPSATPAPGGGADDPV
- Format: functional
Calls of active or inactive are those of the source.
Recorded measurements of EC50, one per entry

- compound: "Cc1ccc(OCC(=O)N2CCN(c3nnc(-c4ccccc4)c4ccccc34)CC2)cc1"
  EC50: "3.8 µM (active)"
- compound: "CCn1c(COc2cccc(C)c2)nc2ccccc21"
  EC50: "13 µM (active)"
- compound: "COc1cc(C)c(C(C)C)cc1S(=O)(=O)n1cnc(C)c1"
  EC50: "52.3 µM (active)"
- compound: "O=S(=O)(Cc1cc(Oc2ccccc2)nc(-c2ccccc2)n1)c1ccccc1"
  EC50: "19.2 µM (active)"

Now take the following compound into account.
Can you look up the measured EC50 of O=c1[nH]c2ccccc2n1CCCN1CCN(C(c2ccccc2)c2ccccc2)CC1 [OXATOMIDE] for me?
5.15 µM (active)

---

- tested.system: Sentrin-specific protease 7 (Homo sapiens, UniProt Q9BQF6);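 note: Luminescence-based dose-response confirmation of ultra-high-throughput screening hits, measuring inhibition of SENP7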
- Sequence (Q9BQF6 whole entry): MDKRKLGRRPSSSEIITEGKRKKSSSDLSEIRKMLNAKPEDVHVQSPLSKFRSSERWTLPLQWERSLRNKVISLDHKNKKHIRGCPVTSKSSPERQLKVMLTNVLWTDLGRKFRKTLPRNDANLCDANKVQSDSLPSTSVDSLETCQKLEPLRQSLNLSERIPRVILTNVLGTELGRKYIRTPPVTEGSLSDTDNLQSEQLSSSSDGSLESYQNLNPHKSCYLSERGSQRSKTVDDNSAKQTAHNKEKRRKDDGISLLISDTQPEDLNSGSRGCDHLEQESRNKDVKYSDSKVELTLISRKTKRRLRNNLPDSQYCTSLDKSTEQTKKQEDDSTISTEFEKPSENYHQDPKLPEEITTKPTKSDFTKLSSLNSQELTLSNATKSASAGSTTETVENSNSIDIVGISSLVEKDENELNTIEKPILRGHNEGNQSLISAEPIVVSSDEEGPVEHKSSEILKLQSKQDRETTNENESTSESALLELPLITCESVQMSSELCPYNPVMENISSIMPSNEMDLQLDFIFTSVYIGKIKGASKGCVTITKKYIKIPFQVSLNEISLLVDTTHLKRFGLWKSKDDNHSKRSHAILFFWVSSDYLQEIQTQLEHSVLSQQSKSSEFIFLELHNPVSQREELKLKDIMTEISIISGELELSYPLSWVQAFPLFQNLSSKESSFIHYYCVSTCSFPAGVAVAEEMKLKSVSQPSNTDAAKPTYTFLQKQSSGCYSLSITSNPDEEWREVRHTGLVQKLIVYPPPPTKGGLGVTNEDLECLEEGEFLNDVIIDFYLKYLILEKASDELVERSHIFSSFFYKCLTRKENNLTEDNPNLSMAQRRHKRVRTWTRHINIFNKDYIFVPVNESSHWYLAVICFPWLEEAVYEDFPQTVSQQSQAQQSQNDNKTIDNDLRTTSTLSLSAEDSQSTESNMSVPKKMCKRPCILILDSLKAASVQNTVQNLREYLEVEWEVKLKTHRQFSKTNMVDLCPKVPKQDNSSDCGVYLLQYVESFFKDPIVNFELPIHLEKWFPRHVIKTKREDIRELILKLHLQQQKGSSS
- Type: functional
Calls of active or inactive are those of the source.
result.type: IC50

- structure: "Cc1oc2c(c1C(=O)c1ccccc1)C(=O)C(=O)c1ccccc1-2"
  IC50: "9.15 µM (active)"

I am curious: what IC50 value has been reported for `COc1ccc(/N=C(\C)C2=C(O)c3ccccc3C2=O)cc1` ?
1.99 µM (active)

---

- tested.system: Major prion protein (Homo sapiens)
- Type: functional, cell-based
Calls of active or inactive are those of the source.
One label from this list, please: active, inactive

Worked examples, 7 compounds total:
- compound: "Cc1cc(OCc2ccccc2)ccc1C(=O)C1=C(O)C(=O)N(Cc2cccnc2)C1c1ccncc1 (stereo not drawn)"
  tested.system: "Major prion protein (Homo sapiens)"
  label.value: "inactive"
- compound: "O=C(O)CSc1ncnc2sc3c(c12)CCCC3"
  tested.system: "Major prion protein (Homo sapiens)"
  label.value: "active"
- compound: "O=C(O)CCSc1ccc2ccccc2n1"
  tested.system: "Major prion protein (Homo sapiens)"
  label.value: "active"
- compound: "CCN(CC)C(=O)CSc1nc(O)c(Cc2ccccc2)c(=O)n1-c1ccccc1"
  tested.system: "Major prion protein (Homo sapiens)"
  label.value: "inactive"
- compound: "CC(=O)Nc1ccc(-c2ccnc(-c3ccc(NC(C)=O)cc3)n2)cc1"
  tested.system: "Major prion protein (Homo sapiens)"
  label.value: "inactive"
- compound: "COc1ccc(-c2nnc(-c3ccc(Br)o3)o2)cc1OC"
  tested.system: "Major prion protein (Homo sapiens)"
  label.value: "active"
- compound: "CCc1cc2cccc(C)c2nc1SCC(=O)N1CCN(C(=O)c2ccco2)CC1"
  tested.system: "Major prion protein (Homo sapiens)"
  label.value: "inactive"

In the following, a different compound is considered.
Dear all, I need the recorded test outcome for `C[C@H]1COc2c3ccc(I)cc3nn21` , thank you.
active

---

- tested.system: Paired box protein Pax-8 (Homo sapiens)
- Sequence (Q06710 whole entry): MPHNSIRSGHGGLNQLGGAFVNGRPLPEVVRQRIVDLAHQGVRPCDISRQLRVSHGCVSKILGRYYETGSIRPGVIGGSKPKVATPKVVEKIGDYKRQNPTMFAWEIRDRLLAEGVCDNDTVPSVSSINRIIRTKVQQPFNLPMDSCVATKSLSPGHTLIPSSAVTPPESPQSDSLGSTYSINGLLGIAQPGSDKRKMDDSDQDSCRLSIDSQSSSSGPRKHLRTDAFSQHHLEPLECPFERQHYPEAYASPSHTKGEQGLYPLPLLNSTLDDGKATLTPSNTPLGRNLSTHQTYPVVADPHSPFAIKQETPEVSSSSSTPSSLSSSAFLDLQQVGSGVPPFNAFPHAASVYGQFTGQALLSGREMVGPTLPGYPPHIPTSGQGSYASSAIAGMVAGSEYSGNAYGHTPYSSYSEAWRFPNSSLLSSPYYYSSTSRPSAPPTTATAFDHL
- assay.comment: inhibitors of PAX8-driven TPO luciferase reporter, dose response, RMG-I cells, cherry-pick (AID 687027);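 note: luciferase reporter driven by Pax8 target thyroperoxidase promoter measured by SteadyGlo luminescence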
- Assay type: functional, cell-based
The source made the active and inactive calls.
result.type: AC50

- structure: "C[C@@H]1CN([C@H](C)CO)C(=O)c2cc(NC(=O)Nc3ccccc3)ccc2O[C@@H](C)CCCCO[C@@H]1CN(C)CC1CCCCC1"
  result: "5.42 µM (active)"
- structure: "COc1ccccc1C#Cc1ccc2c(c1)O[C@H](CN(C)Cc1cccnc1)[C@H](C)CN([C@@H](C)CO)S2(=O)=O"
  result: "7.51 µM (active)"
- structure: "COc1ccc(CCNc2nnc(Sc3nnnn3-c3ccccc3)s2)cc1OC"
  result: "4.21 µM (active)"
- structure: "C[C@H]1CN([C@@H](C)CO)C(=O)Cc2cc(NC(=O)NC3CCCCC3)ccc2O[C@H]1CN(C)S(=O)(=O)c1ccc(Cl)cc1"
  result: "11.9 µM (active)"
- structure: "Cc1ccc(S(=O)(=O)Nc2ccc3c(c2)CC(=O)N([C@@H](C)CO)C[C@@H](C)[C@H](CN(C)Cc2ccc(Cl)c(Cl)c2)O3)cc1"
  result: "5.67 µM (active)"

Find AC50 (Paired box protein Pax-8 (Homo sapiens)) for the entry `C[C@H]1CN([C@@H](C)CO)C(=O)Cc2cc(NC(=O)Nc3ccc4c(c3)OCO4)ccc2O[C@@H]1CN(C)CC1CCCCC1`
31.2 µM (active)

---

- tested.system: Peroxisome proliferator-activated receptor gamma/Nuclear receptor coactivator 3 (Homo sapiens, UniProt P37231);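 note: agonist potency for raising coactivator recruitment to the receptor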
- Type: functional
result.type: EC50

- compound: "CC1C(Br)C(=O)NC(=O)N1Cc1ccccc1 (stereo not drawn)"
  result.type: "EC50"
  result: "> 79.4 µM (not active)"
- compound: "CC(=O)N1CCN(c2ccc(NC(=O)/C=C/c3ccccc3)cc2)CC1"
  result.type: "EC50"
  result: "> 79.4 µM (not active)"
- compound: "Cc1nnc(SCc2ccccc2)n1N"
  result.type: "EC50"
  result: "> 79.4 µM (not active)"
- compound: "Cc1cccc(N(CC(=O)N2CCN(c3ccc(F)cc3)CC2)S(C)(=O)=O)c1C"
  result.type: "EC50"
  result: "> 79.4 µM (not active)"
- compound: "COc1ccc2nc(C)cc(SCC(=O)Nc3c(C)cc(C)cc3C)c2c1"
  result.type: "EC50"
  result: "> 79.4 µM (not active)"

I'd like to know its EC50. The compound in question is CCS(=O)(=O)N1CCN(C2CCC(c3ccccc3)CC2)CC1 (stereo not drawn)
> 79.4 µM (not active)

Need EC50, item `CSc1cc(-c2ccc(Cl)cc2)n(Cc2ccccc2)c(=O)c1C#N`
80.7 µM (not active)

Reported EC50, compound `COc1cccc(NC(=S)NC(=O)c2c(Cl)c(C)nn2C)c1` : ____
> 79.4 µM (not active)

---

- tested.system: UniProt P08684
- Sequence (P08684 whole entry): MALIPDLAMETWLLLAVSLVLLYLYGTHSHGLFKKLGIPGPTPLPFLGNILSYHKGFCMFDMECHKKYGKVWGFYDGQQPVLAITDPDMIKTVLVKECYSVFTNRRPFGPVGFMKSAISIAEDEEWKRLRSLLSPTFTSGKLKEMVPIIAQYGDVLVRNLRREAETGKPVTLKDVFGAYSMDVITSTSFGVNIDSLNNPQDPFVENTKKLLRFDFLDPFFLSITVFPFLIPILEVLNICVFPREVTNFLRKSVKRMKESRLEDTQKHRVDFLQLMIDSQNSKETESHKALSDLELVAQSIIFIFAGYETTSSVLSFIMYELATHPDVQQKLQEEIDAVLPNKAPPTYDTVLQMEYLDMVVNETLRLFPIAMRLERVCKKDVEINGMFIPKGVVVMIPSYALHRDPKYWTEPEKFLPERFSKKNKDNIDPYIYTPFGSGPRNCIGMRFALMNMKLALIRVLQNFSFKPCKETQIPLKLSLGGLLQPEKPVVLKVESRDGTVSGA
result.type: AC50

// below: answered compounds
- compound: "C=CCn1cc(Cl)c(=O)n(CC=C)c1=O"
  tested.system: "UniProt P08684"
  AC50: "25.1 µM (inconclusive)"
- compound: "C/C(=N\\n1nnnc1Nc1ccccc1)c1ccc(N)cc1"
  tested.system: "UniProt P08684"
  AC50: "22.4 µM (inconclusive)"

Bench note: what AC50 did `COc1ccc(-n2c(=O)c(CCc3ccccc3)nc3cnc(N4CCN(C)CC4)nc32)cc1` show?
12.6 µM (inconclusive)

Requested field: AC50. Item: `CSc1cc2c(cc1C(F)(F)F)N(C(=O)Nc1cccnc1)CC2`
3.98 µM (inconclusive)

What value of measured AC50 is listed for `CCc1ccc(C(=O)N2CCC(c3nc4ccccc4s3)CC2)cc1` ?
39.8 µM (inconclusive)

Given `CN(C)C(=O)c1ccc(-c2ccc3ncnc(NCCN4CCOCC4)c3c2)cc1` , state its recorded AC50.
15.8 µM (inconclusive)

Which measured AC50 value corresponds to c1cnc2ccc(C(c3nnnn3C3CCCC3)N3CCN4CCCC4C3)cc2c1 (stereo not given) ?
6.31 µM (inconclusive)

Please give the measured AC50 for this compound: `Cc1ccc(-n2ncc(N(C)C)c(Cl)c2=O)cc1`
28.2 µM (inconclusive)

Find the recorded AC50 belonging to CCOC(=O)C1CCCN(C/C=C/c2ccccc2[N+](=O)[O-])C1 (stereo not given) and report it.
25.1 µM (inconclusive)

Using the record for `O=c1c(-c2cccs2)nc2cnc(N3CCOCC3)nc2n1-c1ccccc1` , report its AC50.
7.94 µM (inconclusive)

Report AC50 for `CC(=O)N1CCc2cc(Br)cc(S(=O)(=O)N3CCN(C(=O)c4ccco4)CC3)c21` please.
15.8 µM (inconclusive)

Give the measured AC50 of `COc1cccc(Nc2ncc3nc(CCc4ccccc4)c(=O)n(Cc4cccs4)c3n2)c1` .
6.31 µM (inconclusive)

# AC50 lookup, item `Cc1cccc(CS(=O)(=O)Cc2ccc(C(=O)NCc3ccco3)o2)c1`
39.8 µM (inconclusive)

Dear colleague, I am looking for the recorded AC50 of the following compound: `CCNc1nc(Sc2ccc(C)cc2)cc(C(F)(F)F)n1`
22.4 µM (inconclusive)

What does the data say about its AC50? Entry: CN1C(=O)C(CC(=O)Nc2ccc(F)cc2)N(CCCc2ccccc2)C1=S (stereo not given)
22.4 µM (inconclusive)

---

- tested.system: Cytochrome P450 2C19 (Homo sapiens, UniProt P33261)
- Sequence (P33261 whole entry): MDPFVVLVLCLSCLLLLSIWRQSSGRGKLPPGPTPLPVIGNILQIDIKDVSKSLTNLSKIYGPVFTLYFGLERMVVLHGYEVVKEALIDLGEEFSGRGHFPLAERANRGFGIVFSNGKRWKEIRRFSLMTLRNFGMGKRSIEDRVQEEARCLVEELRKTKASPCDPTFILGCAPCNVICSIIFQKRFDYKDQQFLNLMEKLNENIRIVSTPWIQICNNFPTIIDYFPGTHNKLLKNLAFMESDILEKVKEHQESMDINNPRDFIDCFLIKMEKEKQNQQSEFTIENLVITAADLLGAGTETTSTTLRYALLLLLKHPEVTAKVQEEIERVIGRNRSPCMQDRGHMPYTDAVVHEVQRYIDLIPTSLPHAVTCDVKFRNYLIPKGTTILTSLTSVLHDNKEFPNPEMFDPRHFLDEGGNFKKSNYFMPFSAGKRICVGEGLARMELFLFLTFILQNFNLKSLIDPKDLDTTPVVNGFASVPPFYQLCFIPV
- assay.comment: Cytochrome panel assay with activity outcomes. Panel member name: p450-cyp2c19 Compounds with AC50 equal or less than 10 uM are considered active
- Format: functional
- assay.context: read-out: AC50
Calls of active or inactive are those of the source.
result.type: AC50

- molecule: "COc1ccc2[nH]c([S+]([O-])Cc3ncc(C)c(OC)c3C)nc2c1 (centres undefined)"
  result: "2.51 µM (active)"
- molecule: "Cc1cccn2c(=O)c(/C=N/O)c(N3CCCC3)nc12"
  result: "31.6 µM (inconclusive)"
- molecule: "COc1ccc(C2C(C#N)=C(N)OC3=C2C(=O)CC(C)(C)C3)c([N+](=O)[O-])c1OC (centres undefined)"
  result: "14.1 µM (inconclusive)"
- molecule: "Cc1ccc2[nH]c3nc(CCCn4ccnc4-c4ccccc4)nnc3c2c1"
  result: "2.51 µM (inconclusive)"
- molecule: "O=C(Nc1ccc2ccccc2c1)c1onc2c1CCCC2"
  result: "15.8 µM (inconclusive)"
- molecule: "COC(=O)[C@@]1(Cc2ccc(OC)cc2)[C@H]2c3cc(C(=O)N(C)C)n(Cc4ccc(C(F)(F)F)nc4)c3C[C@H]2CN1C(=O)c1ccccc1"
  result: "39.8 µM (inconclusive)"
- molecule: "c1cnc2ccc(C(c3nnnn3C3CCCC3)N3CCN4CCCC4C3)cc2c1 (centres undefined)"
  result: "25.1 µM (inconclusive)"
- molecule: "CCC1(O)c2ccccc2-c2ncccc21 (centres undefined)"
  result: "39.8 µM (inconclusive)"

Which AC50 is reported for this molecule? `COc1ccc(C(=O)Nc2nc3c(s2)Cc2cc(OC)ccc2-3)cc1`
5.01 µM (inconclusive)

Please give the measured AC50 for this molecule: `C/C(=N\n1nnnc1Nc1ccccc1)c1ccc(N)cc1`
3.55 µM (inconclusive)

Which AC50 is reported for this molecule? `COCCCn1nnnc1SCC(=O)N1CCCC1`
25.1 µM (inconclusive)

I'd like to know its AC50. The molecule in question is `O=C(NCCO)c1cc2c(s1)CCC2`
5.01 µM (inconclusive)

Which measured AC50 value corresponds to CCOC(=O)C1=C(c2ccccc2)N=c2s/c(=C\c3ccc(O)cc3)c(=O)n2C1c1cccs1 (centres undefined) ?
3.98 µM (inconclusive)

What does the data say about its AC50? Entry: `C/C(Cl)=C/CSc1nnc2n(N)c(=O)c3ccccc3n12`
25.1 µM (inconclusive)
